- protocol: NCI Yeast Anticancer Drug Screen. Data for the CLN2oe strain (AID 163);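 note: 0% = growth of vehicle-only control cultures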
- details: S. cerevisiae CLN2oe strain, at 33.0 µM
About 79,000 compounds went through this panel and 15% of them were active in at least one assay; those are over-represented in the sample as a whole. Activity calls are given as the source filed them. Cut-off read from the data, not from the text of the source: active = growth inhibition above about 70%; inactive = the rest.
Mark one answer only. Choices: 1.0 = active, 0.0 = inactive

Use these answered entries as a reference point.
Clc1ccccc1C1OC1c1ccccc1Cl (stereo not drawn)    0.0
Cc1c(C2=C(Br)C(=O)N(C)C2=O)c(=O)n(C)c(=O)n1C    0.0
O=C1c2ccccc2C(=O)c2cc(CBr)ccc21    0.0
O=C(O)c1ccccc1NC(=S)c1ccccc1    0.0
CCN(CC)CCNc1ccc([N+](=O)[O-])c2nc3ccc(OC)cc3c(N)c12    0.0

[Q] Hello, I am checking results. What call was entered for C=CC(C)(O)CCC1C(=C)C(O)CC2C(C)(C)CCCC12C (stereo not drawn) ?
[A] 0.0
